viability, T/C by entry:
- Tested on: 253994-281-T-J1-PDC KRAS-mutant spheroids with HUVEC/MSC, viability
- EXPERIMENT SUMMARY: Anticancer human tumor 253994-281-T-J1-PDC patient-derived colorectal carcinoma cell line growth inhibition [KRAS2]
- CONDITION: second compound 3.16 µM; first compound 1 µM; stronger effect = lower value
Numbers only here, please. The scale is %.

Examples from the recorded data:
MOLECULE: COc1cc(Nc2ncc3c(n2)-c2ccc(Cl)cc2C(c2c(F)cccc2OC)=NC3)ccc1C(=O)O + CC1OCC2(CCN(c3cnc(Sc4ccnc(N)c4Cl)c(N)n3)CC2)C1N
UNIT TAG: %
viability, T/C: 18.5
--
MOLECULE: CC(=O)OC12COC1CC(O)C1(C)C(=O)C(O)C3=C(C)C(OC(=O)C(O)C(NC(=O)OC(C)(C)C)c4ccccc4)CC(O)(C(OC(=O)c4ccccc4)C21)C3(C)C (stereo not drawn) + C=CC(=O)N1CCN(c2nc(=O)n(-c3c(C)ccnc3C(C)C)c3nc(-c4c(O)cccc4F)c(F)cc23)C(C)C1
UNIT TAG: %
viability, T/C: 27.5

Kindly consider the entry below.
stdin: Please look up its viability, T/C: COc1cc(Nc2ncc3c(n2)-c2ccc(Cl)cc2C(c2c(F)cccc2OC)=NC3)ccc1C(=O)O + COc1cc2nc(C)nc(NC(C)c3cc(N)cc(C(F)(F)F)c3)c2cc1OC1CCOC1
stdout: 29

---

viability, T/C by entry:
- Tested on: 253994-281-T-J1-PDC KRAS-mutant spheroids with HUVEC/MSC, viability
- EXPERIMENT SUMMARY: Anticancer human tumor 253994-281-T-J1-PDC cell line growth inhibition [KRAS2];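 note: spheroids exposed to agents for seven days before readout; percent of DMSO vehicle control viability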
- CONDITION: second compound 0.316 µM; first compound 1 µM; stronger effect = lower value

Examples from the recorded data:
MOLECULE: COC(=O)c1ccc2c(C(=Nc3ccc(N(C)C(=O)CN4CCN(C)CC4)cc3)c3ccccc3)c(O)[nH]c2c1 + C=CC(=O)N1CCN(c2nc(OCC3CCCN3C)nc3c2CCN(c2cccc4cccc(C)c24)C3)CC1CC#N
ASSAY TARGET: 253994-281-T-J1-PDC KRAS-mutant spheroids with HUVEC/MSC, viability
RESULT: 72.5%
//
MOLECULE: CC1OCC2(CCN(c3cnc(Sc4ccnc(N)c4Cl)c(N)n3)CC2)C1N (stereo not given) + C=CC(=O)N1CCN(c2nc(OCC3CCCN3C)nc3c2CCN(c2cccc4cccc(C)c24)C3)CC1CC#N
ASSAY TARGET: 253994-281-T-J1-PDC KRAS-mutant spheroids with HUVEC/MSC, viability
RESULT: 72.6%
//
MOLECULE: CC(C)NCC(C(=O)N1CCN(c2ncnc3c2C(C)CC3O)CC1)c1ccc(Cl)cc1 (stereo not given) + C=CC(=O)N1CCN(c2nc(OCC3CCCN3C)nc3c2CCN(c2cccc4cccc(C)c24)C3)CC1CC#N
ASSAY TARGET: 253994-281-T-J1-PDC KRAS-mutant spheroids with HUVEC/MSC, viability
RESULT: 84.9%

stdin: Please look up its viability, T/C: CC(C)NCC(C(=O)N1CCN(c2ncnc3c2C(C)CC3O)CC1)c1ccc(Cl)cc1 (stereo not given) + C=CC(=O)N1CCN(c2nc(=O)n(-c3c(C)ccnc3C(C)C)c3nc(-c4c(O)cccc4F)c(F)cc23)C(C)C1
stdout: 92.2%

stdin: Please look up its viability, T/C: O=C(c1cc(Cc2n[nH]c(=O)c3ccccc23)ccc1F)N1CCN(C(=O)C2CC2)CC1 + CNCc1ccccc1-c1csc(C(C)Nc2nc(C)nc3cc(OC)c(OC)cc23)c1
stdout: 92.7%

The origin of these recorded values is PubChem BioAssay AID1963874.
